# assayed target: Corticotropin releasing factor receptor (Rattus norvegicus) (UniProt P47866+P35353)
# Sequence (P35353 whole entry, looked up): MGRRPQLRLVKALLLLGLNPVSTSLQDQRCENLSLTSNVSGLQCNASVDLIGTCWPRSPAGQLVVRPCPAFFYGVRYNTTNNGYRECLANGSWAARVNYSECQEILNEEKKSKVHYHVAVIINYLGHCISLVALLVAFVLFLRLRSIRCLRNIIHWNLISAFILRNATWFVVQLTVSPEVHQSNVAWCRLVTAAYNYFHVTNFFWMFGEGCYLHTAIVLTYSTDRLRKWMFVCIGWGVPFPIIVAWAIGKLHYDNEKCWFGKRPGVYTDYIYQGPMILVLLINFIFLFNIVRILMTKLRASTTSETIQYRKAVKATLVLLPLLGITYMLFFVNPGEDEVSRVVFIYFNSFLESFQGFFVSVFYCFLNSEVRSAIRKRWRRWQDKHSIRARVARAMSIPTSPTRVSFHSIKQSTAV
# Sequence (P47866 whole entry, looked up): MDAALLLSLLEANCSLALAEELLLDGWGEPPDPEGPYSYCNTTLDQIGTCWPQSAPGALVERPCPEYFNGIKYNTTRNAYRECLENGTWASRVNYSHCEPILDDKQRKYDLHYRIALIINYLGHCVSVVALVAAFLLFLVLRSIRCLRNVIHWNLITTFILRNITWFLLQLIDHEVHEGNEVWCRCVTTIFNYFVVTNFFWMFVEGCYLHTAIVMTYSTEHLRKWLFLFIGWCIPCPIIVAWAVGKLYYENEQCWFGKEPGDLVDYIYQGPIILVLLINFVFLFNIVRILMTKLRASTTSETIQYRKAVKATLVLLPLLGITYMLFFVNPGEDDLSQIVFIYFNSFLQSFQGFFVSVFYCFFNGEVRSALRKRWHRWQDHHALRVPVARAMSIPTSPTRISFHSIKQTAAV
# measurement protocol: In vitro ability (peptide) to stimulate ACTH release by rat anterior pituitary cells relative to Ovine corticotropin releasing factor (oCRF).
# Type: cell-based
# Parameters: unit not given here
# experimental context: Pituitary gland cell
measure: Relative potency

• H-SQEPPISLDLTAHLLREVLEMTKADQLAQQAHSNRKLLDIA-NH2 = 0.006
• H-SQEPPISLDLTFHLLAEVLEMTKADQLAQQAHSNRKLLDIA-NH2 = 0.02
• H-SQEPPISLDLTFHLLREVLEMTKADQLAQQAHSNAKLLDIA-NH2 = 0.02
• H-SQEPPISLDLTFHLLREALEMTKADQLAQQAHSNRKLLDIA-NH2 = 0.5
• H-SQEPPISLDLTFHLLREVLEMTKAAQLAQQAHSNRKLLDIA-NH2 = 1.7

A. H-SQEPPISLDLTFHLLREVLEMTKADQLAQQAHSNRALLDIA-NH2
B. H-SQEPPISLDLTFHLLREVLEMTAADQLAQQAHSNRKLLDIA-NH2
Would you kindly point out which of A and B has the smaller Relative potency figure? State your choice using its label. B
(B: 0.28, A: 0.8)

====

# Test system: Pituitary gland cell
# measurement protocol: In vitro ability of the compound (peptide) to stimulate ACTH release by rat anterior pituitary cells in relative to Ovine corticotropin releasing factor (oCRF) in experiment 1
# Type: cell-based
# Parameters: unit not given here
measure: Relative potency
Give the value as a plain number.

- H-SQEPPISLDLTFHALREVLEMTKADQLAQQAHSNRKLLDIA-NH2: 0.001
- H-SQEPPISLDLTFHLLREVLAMTKADQLAQQAHSNRKLLDIA-NH2: 2.8
- H-SQEPPISLDLTFHLLREVLEMTKADQLAQQAHSNRKLADIA-NH2: 0.004
- H-SQEPPISLDLTFHLLREVLEMTKADQAAQQAHSNRKLLDIA-NH2: 0.6

Kindly consider the entry below.
Relative potency lookup needed for H-SQEPPISLDLTFHLLREVLEMTKADQLAAQAHSNRKLLDIA-NH2 , thanks. 1

====

# assayed target: Corticotropin releasing factor receptor (Rattus norvegicus) (UniProt P47866+P35353)
# measurement protocol: In vitro ability (peptide) to stimulate ACTH release by rat anterior pituitary cells relative to Ovine corticotropin releasing factor (oCRF).
# Assay type: cell-based
# Parameters: unit not given here
# experimental context: Pituitary gland cell
measure: Relative potency

* H-SQEPPISLDLTFHLLREVLEMTKADALAQQAHSNRKLLDIA-NH2 | 1.1
* H-SQEPPISLDLTFHLLREVLEMTKADQLAQQAASNRKLLDIA-NH2 | 4.5
* H-SQEPPISLDLTFHLLREVLEATKADQLAQQAHSNRKLLDIA-NH2 | 0.4

I. H-SQEPPISLDLTFHLLREVLEMTKADQLAQQAHSNRKLLDAA-NH2
II. H-SQEPPISLDLTFALLREVLEMTKADQLAQQAHSNRKLLDIA-NH2
Between I and II , which one shows the larger Relative potency value? Choose, then provide that item's label. I

====

# assayed target: Corticotropin releasing factor receptor (Rattus norvegicus) (UniProt P47866+P35353)
# measurement protocol: In vitro ability (peptide) to stimulate ACTH release by rat anterior pituitary cells relative to Ovine corticotropin releasing factor (oCRF).
# Type: cell-based
# Parameters: unit not given here
# experimental context: Pituitary gland cell
measure: Relative potency

• H-SQEPPISLDLTFHLAREVLEMTKADQLAQQAHSNRKLLDIA-NH2 = 0.09
• H-SQEPPISLDLTFHLLREVLEMTKADQLAQQAHSNRKLLAIA-NH2 = 1.8
• H-SQEPPISLDLTFHLLREVLEMAKADQLAQQAHSNRKLLDIA-NH2 = 3.4
• H-SQEPPISLDLTFHLLREVLEMTKADQLAQQAHANRKLLDIA-NH2 = 2
• H-SQEPPISLDLTFHLLREVLEMTKADQLAQQAHSARKLLDIA-NH2 = 1.1
• H-SQEPPISLDLTFHLLREVLEMTKADQLAQQAHSNRKALDIA-NH2 = 0.7
• H-SQEPPISLDLTFHLLREVLEMTKADQLAQAAHSNRKLLDIA-NH2 = 0.8

1. H-SQEPPISLDLTFHLLRAVLEMTKADQLAQQAHSNRKLLDIA-NH2
2. H-SQEPPISLDLTFHLLREVAEMTKADQLAQQAHSNRKLLDIA-NH2
Of the two listed items, 1 and 2 , which carries the larger Relative potency figure? // return label of chosen record 1
